- System: Neuregulin-1 EGF-like domain
- assayText: binders of neuregulin-1 EGF-like domain, primary screen, biochemical, small-molecule microarray, 635 nm fluorescence (AID 1081);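 also: binding of the protein to compounds printed on small-molecule microarray slides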
- reportedConditions: small-molecule microarray binding, higher = more signal
The molecules listed here are annotated with their composite z-score.
propertyName: composite z-score

>>> recordedvalue("Cc1ccccc1C(O)C1C=CC2C(=O)N(C)C(=O)C2N1N(c1ccccc1)c1ccccc1 (configuration not stated)")
-0.878
>>> recordedvalue("O=C1N(Cc2ccccc2)Cc2ccccc2[C@@H]2OC(c3ccc(OCCCO)cc3)=N[C@]12CCS(=O)(=O)c1ccccc1")
1.32
>>> recordedvalue("C=CCC(OC(C)=O)[C@@H]1[C@@H](N(Cc2cccc3ccccc23)C(=O)Cc2ccc(OC)cc2)c2cc(OCCCO)ccc2N1C(=O)c1ccc2ccccc2n1 (some centres not stated)")
0.154
>>> recordedvalue("O=C1O[C@@H](c2ccccc2)[C@@H](c2ccccc2)N2[C@@H](c3ccc(O)cc3)[C@]3(C(=O)Nc4ccc(C#CC5=CCCCC5)cc43)[C@@H](C(=O)NC[C@H](O)c3ccccc3)[C@H]12")
1.35
>>> recordedvalue("CCCC[C@@H]1C[C@H]1[C@@H](NC(=O)c1ccccc1)c1ccc(C(F)(F)F)cc1")
-0.521
>>> recordedvalue("CCCCC=C[C@@H](NC(=O)c1ccc(-c2ccccc2)cc1)c1ccccc1")
0.739
>>> recordedvalue("C=CCC(OC(C)=O)[C@@H]1[C@@H](N(Cc2ccc(-c3cccc(C(F)(F)F)c3)o2)C(=O)c2ccc(C)cc2)c2cc(OCCCO)ccc2N1C(=O)c1ccc2ccccc2c1 (some centres not stated)")
0.273
